assay: Ratio of drug level in Wistar-Han rat blood to plasma; conditions: blood and plasma
readout.type: blood plasma ratio
Output: the number by itself.

Short answer for COc1cc(F)ccc1-c1ncnc(Nc2cccc(CS(C)(=N)=O)c2)n1 (stereo unspecified) : blood plasma ratio was 1.1

====

assay: Aqueous solubility of the compound at pH 4 for 24 hrs by HPLC-MS/MS; assay type: physicochemical
A collection of compounds and their measured solubility at 24 h
Express the result in µg/mL but write the number alone.

For orientation, consider the following solved cases.
COc1cc(F)ccc1-c1cc(Nc2cc(CS(C)(=N)=O)ccn2)ncn1 (stereo not drawn); 43
COc1cc(F)ccc1-c1ncnc(Nc2cccc(CS(C)(=N)=O)c2)n1 (stereo not drawn); 309

Pending compound:
Sure, the documented solubility at 24 h for COc1cc(F)ccc1-c1nc(Nc2cc(F)cc(CS(C)(=N)=O)c2)ncc1F (stereo in doubt) is 30

Where these numbers come from: ChEMBL document CHEMBL5036331
